Could you please report measured Cmax for the items listed next?
# MEASUREMENT DESCRIPTION: Pharmacokinetics in Sprague Dawley rats, single subcutaneous or intravenous dose (incl. 10, 30, 100 nmol/kg dose response)
# Format: in vivo
# TEST CONDITIONS: rat, plasma, sc; dose response, single subcutaneous dose 10 nmol/kg, male Sprague Dawley rats, mean; read-out: Cmax
*1 amine or outer side, *2 acyl side, *3 side chain or, on linkers, in order; H or OH if unused. Side-chain parts run from the residue outwards. [ ]: non-standard residue; d: D form. The star is where a group is joined. C20 diacid = O=C(O)CCCCCCCCCCCCCCCCCCC(=O)*; γGlu = O=C(O)[C@H](CCC(=O)[*:2])N[*:1]; εLys = N[C@@H](CCCCN[*:1])C(=O)[*:2]; pGlu = O=C1CC[C@@H](C(=O)O)N1; αMeL = CC(C)C[C@](C)(N)C(=O)O; AEEA = NCCOCCOCC(=O)O; Aib = CC(C)(N)C(=O)O
Note: unit nM is implicit; provide only the numeric part.

[ask] Can you share its Cmax? I mean this substance: Ac-GSPSIVTS[αMeL]DVPT[Aib][αMeL]LQKILEQERAEKARQQAK([γGlu-AEEA-εLys-C20 diacid])EAAEILAQV-NH2 [SEQ ID NO: 1]
[reply] 34.2

[ask] Can you share its Cmax? I mean this substance: {C20 diacid-εLys-AEEA-γGlu}-GSPSIVTS[αMeL]DVPT[Aib][αMeL]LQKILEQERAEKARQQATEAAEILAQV-NH2 [SEQ ID NO: 25]
[reply] 23.2

[ask] Can you share its Cmax? I mean this substance: [pGlu]GSPSGIVTS[αMeL]DVPT[Aib][αMeL]LQKILEQERAEKARQQAK([γGlu-AEEA-εLys-C20 diacid])EAAEILAQV-NH2 [SEQ ID NO: 22]
[reply] 49.8

====

# MEASUREMENT DESCRIPTION: Pharmacokinetics in Yucatan mini-pigs, single subcutaneous or intravenous dose
# Format: in vivo
# TEST CONDITIONS: male, Yucatan mini-pig, minipig, plasma, sc, 19 nmol/kg, single subcutaneous dose 19 nmol/kg, Mean, read-out: CL/F (converted)
*1 amine or outer side, *2 acyl side, *3 side chain or, on linkers, in order; H or OH if unused. Side-chain parts run from the residue outwards. [ ]: non-standard residue; d: D form. The star is where a group is joined. C20 diacid = O=C(O)CCCCCCCCCCCCCCCCCCC(=O)*; γGlu = O=C(O)[C@H](CCC(=O)[*:2])N[*:1]; εLys = N[C@@H](CCCCN[*:1])C(=O)[*:2]; αMeL = CC(C)C[C@](C)(N)C(=O)O; AEEA = NCCOCCOCC(=O)O; Aib = CC(C)(N)C(=O)O
Could you please report measured CL/F for the items listed next?
Note: unit mL/day/kg is implicit; provide only the numeric part.

[ask] Can you share its CL/F? I mean this substance: {C20 diacid-εLys-AEEA-γGlu}-GSPSIVTS[αMeL]DVPT[Aib][αMeL]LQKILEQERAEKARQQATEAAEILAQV-NH2 [SEQ ID NO: 25]
[reply] 16.8

[ask] Can you share its CL/F? I mean this substance: Ac-GSPSIVTS[αMeL]DVPT[Aib][αMeL]LQKLLEQERAEKARQQAK([γGlu-AEEA-εLys-C20 diacid])EAAEILAQV-NH2 [SEQ ID NO: 2]
[reply] 29

[ask] Can you share its CL/F? I mean this substance: Ac-GSPSIVTS[αMeL]DVPT[Aib][αMeL]LQKILEQERAEKARQQAK([γGlu-AEEA-εLys-C20 diacid])EAAEILAQV-NH2 [SEQ ID NO: 1]
[reply] 27.6

[ask] Can you share its CL/F? I mean this substance: Ac-PPPIVTS[αMeL]DVPT[Aib][αMeL]LQKLLEQERAEKARQQAK([γGlu-AEEA-εLys-C20 diacid])EAAEILAQV-NH2 [SEQ ID NO: 48]
[reply] 14.6

====

# MEASUREMENT DESCRIPTION: Pharmacokinetics in Cynomolgus monkeys, single subcutaneous or intravenous dose
# Assay type: in vivo
# TEST CONDITIONS: both sexes, cynomolgus monkey, plasma, sc, single subcutaneous dose 183 nmol/kg, Mean, read-out: AUC0-inf
*1 amine or outer side, *2 acyl side, *3 side chain or, on linkers, in order; H or OH if unused. Side-chain parts run from the residue outwards. [ ]: non-standard residue; d: D form. The star is where a group is joined. C20 diacid = O=C(O)CCCCCCCCCCCCCCCCCCC(=O)*; γGlu = O=C(O)[C@H](CCC(=O)[*:2])N[*:1]; εLys = N[C@@H](CCCCN[*:1])C(=O)[*:2]; pGlu = O=C1CC[C@@H](C(=O)O)N1; αMeL = CC(C)C[C@](C)(N)C(=O)O; AEEA = NCCOCCOCC(=O)O; Aib = CC(C)(N)C(=O)O
TEST READOUT: AUC0-inf (µM·h)
Note: unit µM·h is implicit; provide only the numeric part.

[ask] Can you share its AUC0-inf? I mean this substance: [pGlu]GSPSGIVTS[αMeL]DVPT[Aib][αMeL]LQKILEQERAEKARQQAK([γGlu-AEEA-εLys-C20 diacid])EAAEILAQV-NH2 [SEQ ID NO: 22]
[reply] 365

====

Could you please report measured AUC0-inf for the items listed next?
# MEASUREMENT DESCRIPTION: Pharmacokinetics in CD-1 mice, single 100 nmol/kg subcutaneous dose
# Type: in vivo
# TEST CONDITIONS: mouse, plasma, sc, male CD-1 mice, mean
*1 amine or outer side, *2 acyl side, *3 side chain or, on linkers, in order; H or OH if unused. Side-chain parts run from the residue outwards. [ ]: non-standard residue; d: D form. The star is where a group is joined. C20 diacid = O=C(O)CCCCCCCCCCCCCCCCCCC(=O)*; γGlu = O=C(O)[C@H](CCC(=O)[*:2])N[*:1]; εLys = N[C@@H](CCCCN[*:1])C(=O)[*:2]; pGlu = O=C1CC[C@@H](C(=O)O)N1; αMeL = CC(C)C[C@](C)(N)C(=O)O; AEEA = NCCOCCOCC(=O)O; Aib = CC(C)(N)C(=O)O
Note: unit µM·h is implicit; provide only the numeric part.

[ask] Can you share its AUC0-inf? I mean this substance: [pGlu]GSPSGIVTS[αMeL]DVPT[Aib][αMeL]LQKILEQERAEKARQQAK([γGlu-AEEA-εLys-C20 diacid])EAAEILAQV-NH2 [SEQ ID NO: 22]
[reply] 15

[ask] Can you share its AUC0-inf? I mean this substance: {C20 diacid-εLys-AEEA-γGlu}-GSPSIVTS[αMeL]DVPT[Aib][αMeL]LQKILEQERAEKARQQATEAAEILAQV-NH2 [SEQ ID NO: 25]
[reply] 25

[ask] Can you share its AUC0-inf? I mean this substance: Ac-GSPSIVTS[αMeL]DVPT[Aib][αMeL]LQKILEQERAEKARQQAK([γGlu-AEEA-εLys-C20 diacid])EAAEILAQV-NH2 [SEQ ID NO: 1]
[reply] 25.7

====

Could you please report measured half-life for the items listed next?
# MEASUREMENT DESCRIPTION: Pharmacokinetics in Sprague Dawley rats, single subcutaneous or intravenous dose (incl. 10, 30, 100 nmol/kg dose response)
# Assay type: in vivo
# TEST CONDITIONS: male, Sprague Dawley, rat, plasma, sc, 10 nmol/kg, dose response, single subcutaneous dose 10 nmol/kg, mean
*1 amine or outer side, *2 acyl side, *3 side chain or, on linkers, in order; H or OH if unused. Side-chain parts run from the residue outwards. [ ]: non-standard residue; d: D form. The star is where a group is joined. C20 diacid = O=C(O)CCCCCCCCCCCCCCCCCCC(=O)*; γGlu = O=C(O)[C@H](CCC(=O)[*:2])N[*:1]; εLys = N[C@@H](CCCCN[*:1])C(=O)[*:2]; pGlu = O=C1CC[C@@H](C(=O)O)N1; αMeL = CC(C)C[C@](C)(N)C(=O)O; AEEA = NCCOCCOCC(=O)O; Aib = CC(C)(N)C(=O)O
Note: unit h is implicit; provide only the numeric part.

[ask] Can you share its half-life? I mean this substance: Ac-GSPSIVTS[αMeL]DVPT[Aib][αMeL]LQKILEQERAEKARQQAK([γGlu-AEEA-εLys-C20 diacid])EAAEILAQV-NH2 [SEQ ID NO: 1]
[reply] 32.9

[ask] Can you share its half-life? I mean this substance: [pGlu]GSPSGIVTS[αMeL]DVPT[Aib][αMeL]LQKILEQERAEKARQQAK([γGlu-AEEA-εLys-C20 diacid])EAAEILAQV-NH2 [SEQ ID NO: 22]
[reply] 31.7

[ask] Can you share its half-life? I mean this substance: {C20 diacid-εLys-AEEA-γGlu}-GSPSIVTS[αMeL]DVPT[Aib][αMeL]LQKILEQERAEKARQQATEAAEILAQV-NH2 [SEQ ID NO: 25]
[reply] 23.3
